Biological target: T1, BANP BEN WT (human, UniProt Q8N9N5 205-325)
T1 sequence: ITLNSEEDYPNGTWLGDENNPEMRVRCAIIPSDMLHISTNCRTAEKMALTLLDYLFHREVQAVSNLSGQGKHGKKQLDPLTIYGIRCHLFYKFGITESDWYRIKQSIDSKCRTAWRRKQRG
Experiment: ITC; text gives 2.5 uM; ITC: 20 mM Tris pH 7.5, 200 mM NaCl, 2 mM beta-mercaptoethanol, 20 C; EMSA: 20 mM Tris pH 7.0, 200 mM NaCl, 2 mM DTT, 4 C, 1.2% agarose in TAE
Details: protein: recombinant; tags: His-SUMO or His-MBP, cleaved; chain copies: 2; blunt, self-complementary
MEASURED QUANTITY: Kd (nM)
Write the number in nM without appending the unit.

Retrieve Kd measured for 12-CGCG (dsDNA) DNA 1: ATCTCGCGAGAT DNA 2: ATCTCGCGAGAT and print it. 2600
